Molecular target: Prostaglandin G/H synthase 1 (Ovis aries)
Sequence (P05979 whole entry): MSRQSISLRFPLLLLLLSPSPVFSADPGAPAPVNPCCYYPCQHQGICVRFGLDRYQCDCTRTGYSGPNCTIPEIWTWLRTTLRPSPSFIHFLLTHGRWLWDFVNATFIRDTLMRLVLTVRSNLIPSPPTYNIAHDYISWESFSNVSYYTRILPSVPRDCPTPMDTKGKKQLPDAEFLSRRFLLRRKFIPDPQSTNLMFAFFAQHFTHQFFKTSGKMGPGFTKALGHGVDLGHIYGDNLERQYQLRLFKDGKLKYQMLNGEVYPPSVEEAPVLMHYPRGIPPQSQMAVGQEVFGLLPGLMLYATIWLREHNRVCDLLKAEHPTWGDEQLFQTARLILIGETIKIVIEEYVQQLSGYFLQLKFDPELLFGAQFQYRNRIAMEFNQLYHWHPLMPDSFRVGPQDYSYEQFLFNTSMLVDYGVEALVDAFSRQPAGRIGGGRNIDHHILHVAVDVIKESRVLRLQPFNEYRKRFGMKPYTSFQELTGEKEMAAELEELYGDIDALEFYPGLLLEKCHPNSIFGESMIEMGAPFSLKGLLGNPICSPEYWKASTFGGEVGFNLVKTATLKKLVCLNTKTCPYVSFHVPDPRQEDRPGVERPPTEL
measurement type: IC50

Input: Supply IC50 value. Item: "COc1ccc2c(c1)c(CC(=O)O)c(C)n2Cc1ccn(C(F)F)c(=O)c1"
Output: > 100 µM

The values you see were collected from ChEMBL document CHEMBL1255513.
